From: patent US8624002B2

Parameter: Monomer (%). Scope: all listed entries.
# assay.remarks: Accelerated stability screening monitored by SEC
# Type: physicochemical
# condition.label: SEC, start of stability study
reported.metric: Monomer (%)

>>> endpoint_result("Hu2B5.1: humanized 2B5-8.0; VH SEQ ID NO 60, VL SEQ ID NO 61 (antibody, V domains shown) VH: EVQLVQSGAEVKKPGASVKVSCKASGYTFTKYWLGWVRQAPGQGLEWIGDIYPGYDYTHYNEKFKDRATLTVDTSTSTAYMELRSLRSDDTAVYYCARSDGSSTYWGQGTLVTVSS VL: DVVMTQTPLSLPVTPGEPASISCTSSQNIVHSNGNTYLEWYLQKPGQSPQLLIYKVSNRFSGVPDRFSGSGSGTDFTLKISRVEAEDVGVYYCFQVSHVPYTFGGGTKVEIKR")
93.7885
>>> endpoint_result("Hu2B5.6: humanized 2B5-8.0; VH SEQ ID NO 70, VL SEQ ID NO 71 (antibody, V domains shown) VH: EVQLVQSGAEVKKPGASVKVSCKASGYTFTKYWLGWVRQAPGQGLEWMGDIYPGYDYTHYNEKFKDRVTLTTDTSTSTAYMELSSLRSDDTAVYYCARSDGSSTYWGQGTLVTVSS VL: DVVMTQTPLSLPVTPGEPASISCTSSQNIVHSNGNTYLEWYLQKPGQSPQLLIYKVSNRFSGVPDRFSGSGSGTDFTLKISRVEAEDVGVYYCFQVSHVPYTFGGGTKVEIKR")
95.446
